- Test system: SNU-398 (Hepatocellular Carcinoma);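 also: after 72 h of two-drug dosing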
- procedure-summary: Bliss excess, mean over the matrix (fraction); higher = more synergy
observation-type: Bliss excess
Answers are plain numbers.

Consider the worked cases shown below.
# compound, Bliss excess
records = [
    ("COc1nnc2ccc(N3CCC(c4ccc(OCCN5CCN(C)C(=O)[C@H]5C)cc4)CC3)nn12 [AZD5153] + CC1(C)CCC(CN2CCN(c3ccc(C(=O)NS(=O)(=O)c4ccc(NCC5CCOCC5)c([N+](=O)[O-])c4)c(Oc4cnc5[nH]ccc5c4)c3)CC2)=C(c2ccc(Cl)cc2)C1 [Venetoclax] (first compound max 1 µM, 7x7, partner max 1 µM)", -0.126),
    ("COc1cccc(OCCCN)c1-c1cc(Nc2cnc(C#N)cn2)n[nH]1 [Prexasertib] + C[C@@H]1COCCN1C2=NC(=NC(=C2)C3(CC3)[S@](=N)(=O)C)C4=C5C=CNC5=NC=C4 [AZD6738] (first compound max 1 µM, 7x7, partner max 10 µM)", 0.026),
]

For every item below, please supply its Bliss excess.
1. C[C@@H](c1ccc2nccn2c1)n1nnc2ncc(-c3cnn(C)c3)nc21 [Savolitinib] + CC1(C)CCC(CN2CCN(c3ccc(C(=O)NS(=O)(=O)c4ccc(NCC5CCOCC5)c([N+](=O)[O-])c4)c(Oc4cnc5[nH]ccc5c4)c3)CC2)=C(c2ccc(Cl)cc2)C1 [Venetoclax] (first compound max 1 µM, 7x7, partner max 1 µM)
2. CCN(CCO)CCCOc1ccc2c(Nc3cc(CC(=O)Nc4cccc(F)c4)[nH]n3)ncnc2c1 [AZD2811] + C=CCn1c(=O)c2cnc(Nc3ccc(N4CCN(C)CC4)cc3)nc2n1-c1cccc(C(C)(C)O)n1 [AZD1775] (first compound max 1 µM, partner max 1 µM)
3. Cc1nc(Nc2ncc(C(=O)Nc3c(C)cccc3Cl)s2)cc(N2CCN(CCO)CC2)n1 [Dasatinib] + CC(=O)Nc1cccc(-n2c(=O)n(C3CC3)c(=O)c3c(Nc4ccc(I)cc4F)n(C)c(=O)c(C)c32)c1 [Trametinib] (first compound max 2 µM, 7x7, partner max 1 µM)
4. Cc1cc2ncnn2cc1Nc1ncc2c(n1)n(C1CCOCC1)c(=O)n2C [AZD7648] + C=CCn1c(=O)c2cnc(Nc3ccc(N4CCN(C)CC4)cc3)nc2n1-c1cccc(C(C)(C)O)n1 [AZD1775] (first compound max 10 µM, partner max 1 µM)
5. CC(=O)c1c(C)c2cnc(Nc3ccc(N4CCNCC4)cn3)nc2n(C2CCCC2)c1=O [Palbociclib] + Cc1c2c(nn1C)CSCc1cc(n(C)n1)CSc1cc(c3ccccc3c1)OCCCc1c(C(=O)O)n(C)c3c-2c(Cl)ccc13 [AZD5991] (first compound max 10 µM, 7x7, partner max 1 µM)

-0.057
0.0295
-0.0842
0.0128
0.0128
